# experiment-description: Solubility in cell culture medium by HPLC analysis
# Format: physicochemical
readout: solubility (µg/mL)

In the examples that follow, each entry is paired with its recorded solubility.
CC(C)(C)C(=O)NCC1CCN(c2cnc(-c3ccc(S(C)(=O)=O)cc3)c(-c3ccccc3)n2)CC1    0.19
CC(C)(C)OC(=O)NCC1CCN(c2cnc(-c3ccccc3)c(-c3ccccc3)n2)CC1    0.51
CCC(=O)NCC1CCN(c2cnc(-c3ccccc3)c(-c3ccccc3)n2)CC1    0.57
O=C(NCC1CCN(c2cnc(-c3ccccc3)c(-c3ccccc3)n2)CC1)N1CCOCC1    0.55
O=C(NC1CCN(c2cnc(-c3ccccc3)c(-c3ccccc3)n2)CC1)c1ccccc1    0.1
CC(C)(C)C(=O)NCC1CCN(c2cnc(-c3ccccc3)c(-c3ccccc3)n2)CC1    0.1
O=C(NCC1CCN(c2cnc(-c3ccccc3)c(-c3ccccc3)n2)CC1)c1ccccc1    0.08

P: CC(C)(C)OC(=O)N1CCN(c2cnc(-c3ccccc3)c(-c3ccccc3)n2)CC1
Q: CC(C)(C)C(=O)NCC1CCN(c2cnc(-c3ccc(CO)cc3)c(-c3ccccc3)n2)CC1
R: O=C(CCl)NC1CCN(c2cnc(-c3ccccc3)c(-c3ccccc3)n2)CC1
Falling order of solubility, please. Please list the labels according to the requested order.
R, P, Q

----------
# Test system: MGC-803
# experiment-description: Antitumor activity against human MGC-803 cells assessed as cell growth inhibition incubated for 72 hrs by MTT assay
# Type: functional, cell-based
# measurement-context: MGC-803, 72 h
pIC50: −log10 of the molar value.
readout: pIC50

Please review the following examples before continuing.
CC(C)(C)C(=O)NCC1CCN(c2cnc(-c3ccccc3)c(-c3ccccc3)n2)CC1    < 4.00
O=C(NCC1CCN(c2cnc(-c3ccccc3)c(-c3ccccc3)n2)CC1)c1ccccc1    < 4.00

With those in mind, consider the next molecule.
Any idea what its pIC50 is? The molecule is CC(C)(C)C(=O)NCC1CCN(c2cnc(-c3ccc(CO)cc3)c(-c3ccccc3)n2)CC1
< 4.00

----------
Measured IC50 values are reported for all entries that follow.
# study-system: S-phase kinase-associated protein 2/Cyclin-dependent kinases regulatory subunit 1/S-phase kinase-associated protein 1 (Homo sapiens)
# experiment-description: Inhibition of GST-tagged Skp2/Skp1 (unknown origin)/His6-tagged Cks1 (unknown origin) interaction preincubated with Skp2/Skp1 for 10 mins followed by Cks1 addition measured after 20 mins by HTRF assay
# Format: protein assay

Cc1ccc(S(=O)(=O)NC2CCN(c3cnc(-c4ccccc4)c(-c4ccccc4)n3)CC2)cc1    > 25 µM
O=C(c1ccccc1)N1CCN(c2cnc(-c3ccccc3)c(-c3ccccc3)n2)CC1    17.7 µM
CC(C)(C)OC(=O)NCCCNc1cnc(-c2ccccc2)c(-c2ccccc2)n1    > 25 µM

# query: IC50 of entry CCC(=O)N1CCN(c2cnc(-c3ccccc3)c(-c3ccccc3)n2)CC1
10 µM

Next entry: CC(C)(C)C(=O)NCC1CCN(c2cnc(-c3ccc(N)cc3)c(-c3ccccc3)n2)CC1
> 25 µM

Could you do the same for O=C(NCC1CCN(c2cnc(-c3ccccc3)c(-c3ccccc3)n2)CC1)C1CCCCC1 , please?
8.5 µM

Try this compound next: O=C(NCC1CCN(c2cnc(-c3ccccc3)c(-c3ccccc3)n2)CC1)C1CC1
3.3 µM

Subsequent entry: O=C(NCC1CCN(c2cnc(-c3ccccc3)c(-c3ccccc3)n2)CC1)c1ccccc1
2.4 µM

Also check C=CC(=O)NCC1CCN(c2cnc(-c3ccccc3)c(-c3ccccc3)n2)CC1
> 25 µM

Please give the result for c1ccc(-c2ncc(NCCN3CCOCC3)nc2-c2ccccc2)cc1 too.
> 50 µM

Try this compound too: Cc1ccc(S(=O)(=O)NC(=O)COCCCCN(c2cnc(-c3ccccc3)c(-c3ccccc3)n2)C(C)C)cc1
> 50 µM

Please do the same for O=C(NCC1CCN(c2cnc(-c3ccccc3)c(-c3ccccc3)n2)CC1)c1cccs1 as well.
8.5 µM

Queued: O=C(NC1CCN(c2cnc(-c3ccccc3)c(-c3ccccc3)n2)CC1)Oc1ccccc1
13.5 µM

Entry CN(C)c1ccc(-c2ncc(N3CCC(CNC(=O)C(C)(C)C)CC3)nc2-c2ccccc2)cc1 please
5.2 µM

What do you get for O=C(CCCl)NCC1CCN(c2cnc(-c3ccccc3)c(-c3ccccc3)n2)CC1 ?
13.1 µM

Also CC(C)N(CCCCOCC(=O)N1CCOCC1)c1cnc(-c2ccccc2)c(-c2ccccc2)n1 ?
52.6 µM

Do the same for CN(C(=O)OC(C)(C)C)C1CCN(c2cnc(-c3ccccc3)c(-c3ccccc3)n2)CC1 please
> 25 µM

Same for CC(C)(C)C(=O)NCC1CCN(c2cnc(-c3cccc(CO)c3)c(-c3ccccc3)n2)CC1
> 25 µM

Thanks! And CC(C)(C)C(=O)NCC1CCN(c2cnc(Br)c(-c3ccccc3)n2)CC1 ?
> 25 µM

Try the compound CC(C)c1ncc(N2CCC(CNC(=O)C(C)(C)C)CC2)nc1-c1ccccc1
> 25 µM

Likewise for c1ccc(-c2ncc(N3CCSCC3)nc2-c2ccccc2)cc1 ?
> 50 µM

Next entry: CC(C)(C)C(=O)NCC1CCN(c2cnc(C3CCCCC3)c(-c3ccccc3)n2)CC1
> 25 µM

----------
# study-system: S-phase kinase-associated protein 2/Cyclin-dependent kinases regulatory subunit 1/S-phase kinase-associated protein 1 (Homo sapiens, UniProt Q13309)
# Sequence (P61024 whole entry): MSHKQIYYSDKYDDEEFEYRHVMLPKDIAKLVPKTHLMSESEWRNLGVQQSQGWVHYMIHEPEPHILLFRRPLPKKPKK
# Sequence (Q13309 whole entry): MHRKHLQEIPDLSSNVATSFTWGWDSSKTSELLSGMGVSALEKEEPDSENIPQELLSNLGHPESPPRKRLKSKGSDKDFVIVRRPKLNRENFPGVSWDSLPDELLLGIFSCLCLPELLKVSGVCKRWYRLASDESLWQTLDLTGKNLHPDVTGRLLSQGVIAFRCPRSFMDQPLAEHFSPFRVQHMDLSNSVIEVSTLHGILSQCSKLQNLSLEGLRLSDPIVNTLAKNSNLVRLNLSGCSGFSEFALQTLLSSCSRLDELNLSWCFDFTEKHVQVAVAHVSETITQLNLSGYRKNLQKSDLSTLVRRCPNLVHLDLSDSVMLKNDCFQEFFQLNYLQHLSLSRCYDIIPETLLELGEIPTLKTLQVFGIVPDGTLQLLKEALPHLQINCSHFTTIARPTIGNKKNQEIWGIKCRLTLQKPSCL
# Sequence (P63208 whole entry, further chain): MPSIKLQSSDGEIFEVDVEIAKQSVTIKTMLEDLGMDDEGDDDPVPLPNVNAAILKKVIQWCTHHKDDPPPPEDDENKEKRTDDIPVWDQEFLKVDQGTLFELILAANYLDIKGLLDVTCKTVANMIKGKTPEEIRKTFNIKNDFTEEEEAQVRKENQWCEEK
# experiment-description: Inhibition of GST-tagged Skp2/Skp1 (unknown origin)/His6-tagged Cks1 (unknown origin) interaction preincubated with Skp2/Skp1 for 10 mins followed by Cks1 addition measured after 20 mins by HTRF assay
# Type: protein assay
Quick reference: IC50 of the listed items.

Use these answered entries as a reference point.
CS(=O)(=O)NC(=O)COCCNc1cnc(-c2ccccc2)c(-c2ccccc2)n1    > 50 µM
CC(C)(C)OC(=O)NC1CCN(c2cnc(-c3ccccc3)c(-c3ccccc3)n2)CC1    13.7 µM
CC(C)(C)OC(=O)NC1CCCN(c2cnc(-c3ccccc3)c(-c3ccccc3)n2)C1 (stereo not given)    > 25 µM
O=C(CBr)NCC1CCN(c2cnc(-c3ccccc3)c(-c3ccccc3)n2)CC1    > 25 µM
CC(C)(C)C(=O)NCC1CCN(c2cnc(-c3ccc(S(C)(=O)=O)cc3)c(-c3ccccc3)n2)CC1    2.7 µM

Name the reported IC50 value associated with the compound CC(C)N(CCCCOCC(=O)Nc1ccccc1)c1cnc(-c2ccccc2)c(-c2ccccc2)n1
> 50 µM

Follow-up item: CC(C)N(C)c1cnc(-c2ccccc2)c(-c2ccccc2)n1
> 50 µM

Try O=C(CCl)NC1CCN(c2cnc(-c3ccccc3)c(-c3ccccc3)n2)CC1 next.
2.8 µM

Thanks! And CN(C)c1cnc(-c2ccccc2)c(-c2ccccc2)n1 ?
45.4 µM

Next entry: CS(=O)(=O)NC(=O)COCCCCN(Cc1ccccc1)c1cnc(-c2ccccc2)c(-c2ccccc2)n1
> 50 µM

// next record CNc1cnc(-c2ccccc2)c(-c2ccccc2)n1
> 50 µM

----------
# study-system: S-phase kinase-associated protein 2/Cyclin-dependent kinases regulatory subunit 1/S-phase kinase-associated protein 1 (Homo sapiens, UniProt Q13309)
# experiment-description: Inhibition of GST-tagged Skp2/Skp1 (unknown origin)/His6-tagged Cks1 (unknown origin) interaction preincubated with Skp2/Skp1 for 10 mins followed by Cks1 addition measured after 20 mins by HTRF assay
# Format: protein assay
Reported values of IC50 for individual entries

CC(C)(C)C(=O)NCC1CCN(c2cnc(-c3ccncc3)c(-c3ccccc3)n2)CC1    > 25 µM
CN(C)CCNc1cnc(-c2ccccc2)c(-c2ccccc2)n1    > 50 µM
CN(C)C1CCN(c2cnc(-c3ccccc3)c(-c3ccccc3)n2)CC1    > 50 µM

Would you kindly look at the next entry?
Returns the measured IC50 for the input compound. Input: CC(C)(C)C(=O)NCC1CCN(c2cnc(-c3ccccc3CO)c(-c3ccccc3)n2)CC1
> 25 µM

----------
# study-system: S-phase kinase-associated protein 2/Cyclin-dependent kinases regulatory subunit 1/S-phase kinase-associated protein 1 (Homo sapiens)
# experiment-description: Inhibition of GST-tagged Skp2/Skp1 (unknown origin)/His6-tagged Cks1 (unknown origin) interaction preincubated with Skp2/Skp1 for 10 mins followed by Cks1 addition measured after 20 mins by HTRF assay
# Assay type: protein assay
readout: IC50

# annotated cases, reported IC50 shown
CC(C)(C)C(=O)NCC1CCN(c2cnc(-c3cncnc3)c(-c3ccccc3)n2)CC1    > 25 µM
CC(C)Nc1cnc(-c2ccccc2)c(-c2ccccc2)n1    > 50 µM
CS(=O)(=O)NC(=O)COCCCCNc1cnc(-c2ccccc2)c(-c2ccccc2)n1    > 50 µM
CC1CN(c2cnc(-c3ccccc3)c(-c3ccccc3)n2)CCN1C(=O)OC(C)(C)C (centres undefined)    > 25 µM
Oc1cnc(-c2ccccc2)c(-c2ccccc2)n1    > 50 µM
COc1cnc(-c2ccccc2)c(-c2ccccc2)n1    > 50 µM

Quick check: IC50 of CC(C)(C)OC(=O)N1CCN(c2cnc(-c3ccccc3)c(-c3ccccc3)n2)CC1 ?
1.7 µM

Let us now turn to CC(C)(C)OC(=O)NCC1CCN(c2cnc(-c3ccccc3)c(-c3ccccc3)n2)CC1
2.3 µM

Same lookup for O=C(N1CCOCC1)N1CCN(c2cnc(-c3ccccc3)c(-c3ccccc3)n2)CC1 , please.
> 25 µM
